Field: MIC. Provide a value for each of the molecules that follow.
# Test system: Klebsiella pneumoniae
# assay.notes: Antimicrobial activity against multidrug resistant Klebsiella pneumoniae isolate 15 by broth dilution method in presence of 26.3 mg/L efflux pump inhibitor phenylalanine-arginine-beta-naphthylamide
# Type: functional
Give bare numbers, in µg/mL.

Here is how some molecules turned out for MIC.
C[C@@H]1CN(c2c(F)c(N)c3c(=O)c(C(=O)O)cn(C4CC4)c3c2F)C[C@H](C)N1
8
CCn1cc(C(=O)O)c(=O)c2cc(F)c(N3CCNCC3)cc21
256
CN(C)[C@@H]1C(O)=C(C(N)=O)C(=O)[C@@]2(O)C(O)=C3C(=O)c4c(O)cccc4[C@@](C)(O)[C@H]3C[C@@H]12
128

Let us examine a further case.
Returns the measured MIC for the input molecule. Input: `O=C(N[C@H](CO)[C@H](O)c1ccc([N+](=O)[O-])cc1)C(Cl)Cl`
2
